I'd appreciate it if you could supply solubility (mole fraction) values for the items below.
# assay context: in methyl acetate, 318.15 K
Give bare numbers.

1) O=C1OC(=O)c2c(Cl)cccc21 = 0.198

Ask: Item O=C1OC(=O)c2cc(Cl)ccc21 has what recorded solubility (mole fraction)?
Result: 0.33

----------
# assay context: in methanol, 293.15 K
readout label: solubility (mole fraction)
One number for each entry.

Provide reported solubility (mole fraction) for each item, in the same order as listed.
1. O=C1OC(=O)c2cc(Cl)ccc21
2. O=C1OC(=O)c2c(Cl)cccc21

Result:
0.118
0.0766

----------
# assay context: in acetonitrile, 288.15 K
readout label: solubility (mole fraction)
Answers are plain numbers.

1. O=C1OC(=O)c2cc(Cl)ccc21 = 0.121

Could you now consider this next compound?
Ask: Item O=C1OC(=O)c2c(Cl)cccc21 has what recorded solubility (mole fraction)?
Result: 0.0793

----------
# assay context: in tert-amyl alcohol, 318.15 K
readout label: solubility (mole fraction)
Answers are plain numbers.

1. O=C1OC(=O)c2c(Cl)cccc21 = 0.0184

Could you now consider this next molecule?
Ask: Item O=C1OC(=O)c2cc(Cl)ccc21 has what recorded solubility (mole fraction)?
Result: 0.0489

----------
# assay context: in acetonitrile, 323.15 K
readout label: solubility (mole fraction)
Numbers only.

1) O=C1OC(=O)c2c(Cl)cccc21 = 0.225

Ask: Item O=C1OC(=O)c2cc(Cl)ccc21 has what recorded solubility (mole fraction)?
Result: 0.304

----------
# assay context: in cyclohexane, 298.15 K
readout label: solubility (mole fraction)
Give bare numbers.

1) O=C1OC(=O)c2cc(Cl)ccc21 = 0.00109

Ask: Item O=C1OC(=O)c2c(Cl)cccc21 has what recorded solubility (mole fraction)?
Result: 0.000764
